// data source = ChEMBL document CHEMBL1136732

PROTOCOL_DETAILS: In vitro cytotoxicity was determined
PROTOCOL_CONDITIONS: read-out: LD50 (the source's name)
Property: CC50; scope: individual compounds
QUANTITY: CC50 (µM)

>>> meas_value("Cc1[nH]c(/C=C2\\C(=O)Nc3ccc(F)cc32)c(C)c1C(=O)NCC1CCN(C)CC1")
38
>>> meas_value("CCN(CC)CCNC(=O)c1c(C)[nH]c(/C=C2\\C(=O)Nc3ccc(Br)cc32)c1C")
16.3
>>> meas_value("Cc1[nH]c(/C=C2\\C(=O)Nc3ccc(F)cc32)c(C)c1C(=O)NCCN(C)C")
48.5

###

pIC50: −log10 of the molar value.
Below are pIC50 values measured for Platelet-derived growth factor receptor beta (Homo sapiens).
QUANTITY: pIC50

>>> meas_value("Cc1[nH]c(/C=C2\\C(=O)Nc3ccccc32)c(C)c1CCCN1CCN(C)CC1")
7.22
>>> meas_value("Cc1[nH]c(/C=C2\\C(=O)Nc3ccc(F)cc32)c(C)c1C(=O)NCc1ccncc1")
9.00
>>> meas_value("CCN(CC)CCNC(=O)c1c(C)[nH]c(/C=C2\\C(=O)Nc3ccc(Cl)cc32)c1C [SU-11652]")
8.52
>>> meas_value("Cc1[nH]c(/C=C2\\C(=O)Nc3ccc(F)cc32)c(C)c1C(=O)NCCn1cncn1")
8.00
>>> meas_value("Cc1[nH]c(/C=C2\\C(=O)Nc3ccc(F)cc32)c(C)c1C(=O)NCC1CCN(C)CC1")
8.52
>>> meas_value("Cc1[nH]c(/C=C2\\C(=O)Nc3ccc(F)cc32)c(C)c1C(=O)NCCN(C)C")
9.30
>>> meas_value("Cc1[nH]c(/C=C2\\C(=O)Nc3ccc(F)cc32)c(C)c1C(=O)NCCN1CCOCC1")
8.70
>>> meas_value("CCN(CC)CCNC(=O)c1c(C)[nH]c(/C=C2\\C(=O)Nc3ccc(Br)cc32)c1C")
8.30
>>> meas_value("Cc1[nH]c(/C=C2\\C(=O)Nc3ccc(F)cc32)c(C)c1C(=O)NCCN1CCCC1 [TOCERANIB]")
9.00
>>> meas_value("CCN(CC)CCNC(=O)c1c(C)[nH]c(/C=C2\\C(=O)Nc3ccccc32)c1C")
7.77

###

TARGET_ENTITY: Fibroblast growth factor receptor 1 (Homo sapiens)
Sequence (P11362 whole entry): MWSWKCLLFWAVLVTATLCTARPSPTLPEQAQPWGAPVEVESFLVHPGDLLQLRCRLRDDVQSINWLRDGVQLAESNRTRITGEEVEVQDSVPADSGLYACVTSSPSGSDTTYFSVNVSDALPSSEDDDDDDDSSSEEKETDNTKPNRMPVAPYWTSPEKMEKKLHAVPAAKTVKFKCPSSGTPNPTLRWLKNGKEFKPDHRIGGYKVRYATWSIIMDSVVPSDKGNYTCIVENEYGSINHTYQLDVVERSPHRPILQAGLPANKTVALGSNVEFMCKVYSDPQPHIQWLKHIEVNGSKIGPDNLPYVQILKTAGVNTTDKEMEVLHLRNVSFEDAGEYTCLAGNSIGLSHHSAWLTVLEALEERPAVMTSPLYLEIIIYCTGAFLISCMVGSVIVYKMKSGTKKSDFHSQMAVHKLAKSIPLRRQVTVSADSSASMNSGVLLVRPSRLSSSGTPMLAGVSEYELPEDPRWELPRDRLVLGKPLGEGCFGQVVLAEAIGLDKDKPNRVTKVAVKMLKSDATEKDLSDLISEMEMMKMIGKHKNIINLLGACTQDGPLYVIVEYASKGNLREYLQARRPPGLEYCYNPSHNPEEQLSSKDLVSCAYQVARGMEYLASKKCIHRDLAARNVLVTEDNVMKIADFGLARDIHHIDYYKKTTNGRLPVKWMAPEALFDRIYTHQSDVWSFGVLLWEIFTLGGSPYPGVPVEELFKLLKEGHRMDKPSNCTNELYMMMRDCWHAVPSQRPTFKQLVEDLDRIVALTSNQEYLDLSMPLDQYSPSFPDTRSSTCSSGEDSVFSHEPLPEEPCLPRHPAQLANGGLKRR
pIC50: −log10 of the molar value.
QUANTITY: pIC50

>>> meas_value("Cc1[nH]c(/C=C2\\C(=O)Nc3ccc(F)cc32)c(C)c1C(=O)NCCN1CCOCC1")
5.59
>>> meas_value("CCN(CC)CCNC(=O)c1c(C)[nH]c(/C=C2\\C(=O)Nc3ccc(Cl)cc32)c1C")
6.77
>>> meas_value("Cc1[nH]c(/C=C2\\C(=O)Nc3ccc(F)cc32)c(C)c1C(=O)NCCn1cncn1")
4.77
